Biological target: UniProt P9WGR1
Sequence (P9WGR1 whole entry): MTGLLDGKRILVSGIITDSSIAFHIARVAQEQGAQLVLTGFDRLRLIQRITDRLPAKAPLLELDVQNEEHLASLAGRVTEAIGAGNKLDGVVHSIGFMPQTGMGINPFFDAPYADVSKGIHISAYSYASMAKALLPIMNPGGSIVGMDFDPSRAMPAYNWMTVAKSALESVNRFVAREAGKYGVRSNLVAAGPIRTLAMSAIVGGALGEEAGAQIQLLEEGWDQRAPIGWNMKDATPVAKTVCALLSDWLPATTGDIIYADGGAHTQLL
Assay: Inhibition of Mycobacterium tuberculosis InhA at 50 uM using DD-CoA as substrate relative to control
Active and inactive are the calls of the source. No cut-off for these calls is given here.
observed property: inhibition

CCCCCc1c(CO)nnn1Cc1ccc2ccccc2c1: inactive
CCCc1cn(Cc2ccccc2O)nn1: 92%
Oc1ccccc1Cn1cc(-c2ccccc2)nn1: inactive
CCCCCc1cn(Cc2ccccc2O)nn1: inactive

meta.source: ChEMBL document CHEMBL4673194
